The reported measurements were obtained from the supplement of paper PMC3334620.

- measuredTarget: Gcr1 (UniProt P07261)
- Sequence: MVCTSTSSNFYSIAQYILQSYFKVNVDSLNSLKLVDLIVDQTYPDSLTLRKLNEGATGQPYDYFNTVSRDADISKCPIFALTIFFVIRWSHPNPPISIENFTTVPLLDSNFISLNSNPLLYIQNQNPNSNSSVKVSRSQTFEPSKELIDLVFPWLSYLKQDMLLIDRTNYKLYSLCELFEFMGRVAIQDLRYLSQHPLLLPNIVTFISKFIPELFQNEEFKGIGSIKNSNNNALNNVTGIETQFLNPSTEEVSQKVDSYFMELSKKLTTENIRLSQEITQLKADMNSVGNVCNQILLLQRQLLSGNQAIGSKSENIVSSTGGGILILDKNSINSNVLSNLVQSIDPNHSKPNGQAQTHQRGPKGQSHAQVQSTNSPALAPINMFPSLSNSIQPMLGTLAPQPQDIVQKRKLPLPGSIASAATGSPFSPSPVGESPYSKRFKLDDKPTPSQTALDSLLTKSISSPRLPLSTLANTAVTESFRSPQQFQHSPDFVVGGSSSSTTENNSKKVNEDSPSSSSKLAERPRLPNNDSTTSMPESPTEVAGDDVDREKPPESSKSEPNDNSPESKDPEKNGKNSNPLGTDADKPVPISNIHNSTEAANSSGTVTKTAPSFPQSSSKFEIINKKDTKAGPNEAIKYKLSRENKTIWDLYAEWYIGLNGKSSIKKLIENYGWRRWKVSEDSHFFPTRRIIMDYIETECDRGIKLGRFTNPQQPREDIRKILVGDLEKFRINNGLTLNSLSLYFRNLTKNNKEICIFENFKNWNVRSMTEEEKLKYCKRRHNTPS
- experimentalDetails: PBM E-score (8-mer binding enrichment) (E-score (-0.5 to 0.5)); higher = stronger / more preferred TF binding
- conditionNotes: protein concentration: 100 nM; construct: GST-full length
The full ranking holds about 33,000 sequences; the median of “E-score (-0.5 to 0.5)” is about -0.011, and the highest 2% start at about 0.28. For the sample, the highest values were picked, then their nearest neighbours and some sequences at random.
propertyMeasured: PBM E-score
Please give only the number in your answer, with no unit.

Worked examples follow.
# sequenceCode, measuredTarget, propertyMeasured, quantitativeResult
records = [
    ("ACCTTCCC", "Gcr1 (UniProt P07261)", "PBM E-score", -0.00014),
    ("ATAGTGGG", "Gcr1 (UniProt P07261)", "PBM E-score", 0.308),
    ("GCTGCCAA", "Gcr1 (UniProt P07261)", "PBM E-score", 0.31),
]

# query: PBM E-score | item CCAGATTC | system: Gcr1 (UniProt P07261)
0.326

What measured PBM E-score is associated with AGCACACC on Gcr1 (UniProt P07261)?
-0.188

Any idea what PBM E-score came out for AGGCGCCC on Gcr1 (UniProt P07261)?
0.384
